B1: DnaJ homolog subfamily C member 5, residues 16 to 77; numbered along this chain, Q9H3Z4 (parent)
chain: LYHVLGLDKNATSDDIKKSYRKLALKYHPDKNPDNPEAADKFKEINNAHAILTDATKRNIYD

Variants of: B1
Assay: abundance fitness (aPCA) (normalised: wild type 0, dead -1); higher = more abundant; growth selection in yeast, the domain comes from the species named
Conditions: Homo sapiens
Hi, to clarify the labels: TRUE covers abundance fitness from -0.4 upward, FALSE covers anything below -0.4.

These recorded examples may help you get a feel for the data.
>>> answer_label("LYHVLGLDKNATSDDIKKPYRKLALKYHPDKNPDNPEAADKFKEINNAHAILTDATKRNIYD [S19P]")
"FALSE"
>>> answer_label("LYHVLGLDKNATSDDIKKSYRKLALKYHPDKNPDNPEAADKFKTINNAHAILTDATKRNIYD [E44T]")
"FALSE"
>>> answer_label("LNHVLGLDKNATSDDIKKSYRKLALKYHPDKNPDNPEAADKFKEINNAHAILTDATKRNIYD [Y2N]")
"TRUE"

Moving on to another variant below.
[ask] Identify whether the reported abundance fitness of the following variant is -0.4 or greater: LYHVLGLDKNATSDDIKKSYRKLALKYHPDKNPQNPEAADKFKEINNAHAILTDATKRNIYD [D34Q]
[reply] TRUE
